Where do these numbers come from? They come from the supplement of paper PMC9732359.

# ASSAY METHOD TEXT: protein stability index of a GFP-peptide fusion (yeast GPS) (PSI 1-4); higher = more stable; sorted into four equal gates, so the index is relative within each strain
# PROTOCOL CONDITIONS: pdr5∆
Class (required): determined from protein stability index; valid ranges are low = under 2, medium = from 2 up to 3, high = 3 and over

Known results for sequences:
| QUERY SEQUENCE | LABEL CLASS |
| --- | --- |
| SAVVGPNGSGKSNVIDS [SMC4] | medium |
| EIITSLSMRFQRETSGM [SRB8] | medium |
| FMNDAAADVSAVDAKQL [YML103C/NUP188] | medium |
| VGVDQLSIELEGGKNQA [YJL039C/NUP192] | high |
| MSNTLFDDIFQVSEVDP [RPB8] | medium |
| SNLEKLPKYKEKKAASA [MED7] | medium |

Hi, small favor: classify KAEVTQLSNGIVVATEH [COR1] by its protein stability index when you get a moment. high

Hi, small favor: classify FQIDNDNIRYATALQTC [SMC2] by its protein stability index when you get a moment. low

Hi, small favor: classify NGQRSNSIRAREVENSV [SMC1] by its protein stability index when you get a moment. high

Hi, small favor: classify VQLLSKSHNAHVRCGTA [RPN2] by its protein stability index when you get a moment. low

Hi, small favor: classify KNTMFEKSDALVGVYRQ [SMC1] by its protein stability index when you get a moment. medium

Hi, small favor: classify ANYIKERTKNAQFIVIS [SMC4] by its protein stability index when you get a moment. low

###

# ASSAY METHOD TEXT: protein stability index of a GFP-peptide fusion (yeast GPS) (PSI 1-4); higher = more stable; sorted into four equal gates, so the index is relative within each strain
# PROTOCOL CONDITIONS: doa10∆
Outcome: true for protein stability index of at least 3; false for anything lower.

Known results for sequences:
| QUERY SEQUENCE | LABEL CLASS |
| --- | --- |
| CERRSTLKLQDTRITPS [PRE6] | false |
| SNQRFKDLQWLEFARIT [SIN4] | true |
| KAIFPNTVDGDLLKLVH [FAS1] | false |
| RRKDTSMVLFFVCLSCS [RPB9] | false |

Now let's try a different one.
Textbook exercise: given the entry MFTQIYLERIELSFYIL [YML103C/NUP188] , state whether its protein stability index is greater than or equal to 3. false

###

# ASSAY METHOD TEXT: protein stability index of a GFP-peptide fusion (yeast GPS) (PSI 1-4); higher = more stable; sorted into four equal gates, so the index is relative within each strain
# PROTOCOL CONDITIONS: san1∆
For each of the sequences below, state its protein stability index.
Answers are plain numbers.

Known protein stability index results, listed for orientation:
| QUERY SEQUENCE | protein stability index |
| --- | --- |
| KRKTNIIMFVGLQGSGK [SRP54] | 3.09 |
| GIKVSLLGIFDDIFIPQ [RPC25] | 2 |
| KELAELKVQKLSRPSLP [RPL35A] | 2.5 |
| ELLETVSLTKRKQEREI [YIL149C/MLP2] | 1.5 |
| VTKETVHPRKSYKMNSS [PRP8] | 2.96 |

List reported protein stability index for each of these sequences:
1. EPLAPGNDNLIKAPTVA [YLR335W/NUP2]
2. SNEFVPNTSDNNNNSNN [SWI1]
3. GNEVSSLYPPPPPYVKF [MED7]
4. DYDVSKKASEISVSSRS [SRP14]
5. HKQGSSYVAVLGMGKAV [POP7]
6. GSTLNVSQMVAVVGQQI [RPO31]
7. NTEQGDSDELGGESMEG [SNM1]
8. FLQELLKKVQQQQQAAA [SWI1]

[2.53, 2.71, 2.74, 3.2, 1.66, 2.84, 3.4, 2.47]

Reported protein stability index for KPPSSAFNFSFNTSRNV [YAR002W/NUP60] : what is it? 3.26
